experiment: Toxicity liver stage against HepG2, at 10uM; format: cell-based; set-up: test concentration 10 uM, cell line HepG2-A16-CD81EGFP; details: human, HepG2-A16-CD81EGFP cells; read-out: INHIBITION
READOUT: cytotoxicity at 10 µM (%)
The reply should contain only the number, in %.

molecule="COCC(=O)N1CCCC1c1cc(N2CCN(C(C)=O)CC2)cc(C)n1 (configuration not stated)" number=-9.41

Entry under test: COCCNC(=O)C1CN(C(N)=O)Cc2ccnn2C1 (configuration not stated) . Its cytotoxicity at 10 µM was 0.0039

Entry under test: O=C(Nc1cccc(C(F)(F)F)c1)C1CC(=O)N(Cc2ccccn2)C1 (configuration not stated) . Its cytotoxicity at 10 µM was -0.505

Entry under test: Cc1nn(C)cc1C(=O)N1CCCC(n2cncn2)C1 (configuration not stated) . Its cytotoxicity at 10 µM was -3.27
